B1: LINE1-full (parent)
chain: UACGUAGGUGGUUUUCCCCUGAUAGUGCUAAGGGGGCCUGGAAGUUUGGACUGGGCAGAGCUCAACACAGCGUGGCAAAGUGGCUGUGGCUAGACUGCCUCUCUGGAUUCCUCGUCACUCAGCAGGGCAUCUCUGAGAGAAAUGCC

- Variants of: B1
- MEASUREMENT NOTES: self-cleavage, relative activity (ratio to wild type); higher = more cleavage; in vitro, sequencing; the parent is a self-cleaving ribozyme
QUANTITY NAME: self-cleavage

INSERT INTO results (variant_code, measurement) VALUES
  ('U12C C131U', 1.29),
  ('A78G C146U', 1.06),
  ('A2G A22G', 0.97),
  ('G72U A121U', 1.08),
  ('U26C U81C', 1.93),
  ('A6G A43U', 0.85),
  ('A42C A94G', 0.28),
  ('G53A U73A', 1.88),
  ('C113A A141G', 1.23),
  ('C71U U96C', 0.05),
  ('A69G G105A', 0.62),
  ('U20C U26A', 0.92),
  ('U108A U132A', 1.24),
  ('C16U A117G', 0.57),
  ('G53U A69U', 0.01),
  ('U13A A50U', 0.58),
  ('U23A A129G', 2.15),
  ('A79G U134G', 0.57),
  ('G48C', 1.01),
  ('G4A U108C', 1.04),
  ('A67U A138U', 0.15),
  ('A59G G93U', 0.03),
  ('G88C A129G', 0.12),
  ('G32A A107U', 1.27),
  ('U15C G144U', 1.61),
  ('G27A A121G', 1.46),
  ('U85C U112A', 0.19),
  ('A43G A94C', 0.14),
  ('U13A A129G', 1.2),
  ('G75A A136G', 1.35),
  ('A2U U109C', 1.74),
  ('A64C A141U', 0.3),
  ('A57G U143C', 0.81),
  ('A50G U104A', 0.85),
  ('A69G A92G', 0.23),
  ('C17U U47A', 1.34),
  ('C17A U108C', 1.96),
  ('C17U A121G', 1.53),
  ('A69U A140G', 0.04),
  ('A57C A107U', 0.07),
  ('A92C U112C', 0.18),
  ('U5C U109C', 0.91),
  ('U14A U62G', 0.53);
